experiment: Antiproliferative activity against human SJCRH30 cells assessed as growth inhibition after 48 hrs by sulforhodamine B assay relative to control; assay type: functional
Listed compounds paired with reported Emax
Give the quantity in %, number only.

Reference set, count: 2
compound	units_of_measure	Emax
C=CC(=C)CCC1(C)C(C)CC(=O)C23C(=C[C@H](OC(=O)CC)CC12)[C@@H](OC(C)=O)O[C@H]3OC(C)=O (stereo partly drawn)	%	100
C=CC(=C)CCC1(C)C(C)CC(O)C23C(=C[C@H](OC(=O)CC(C)C)CC12)[C@@H](OC(C)=O)O[C@H]3OC(C)=O (stereo partly drawn)	%	100

Query (compound): C=CC(=C)CCC1(C)C(C)CC(O)C23C(=C[C@H](OC(=O)[C@@H](C)CC)CC12)[C@@H](OC(C)=O)O[C@H]3OC(C)=O (stereo partly drawn) ; field requested: Emax 100

----------
assay: Antiproliferative activity against human D283 cells assessed as growth inhibition after 48 hrs by sulforhodamine B assay; type: functional; conditions: D283, 48 h
recorded_metric: TGI (nM)
// units = nM; emit number, no label

Answered examples (4):
compound	TGI (nM)
C=CC(=C)CCC1(C)C(C)CC(=O)C23C(=C[C@H](OC(=O)[C@@H](C)CC)CC12)[C@@H](OC(C)=O)O[C@H]3OC(C)=O (stereo partly specified)	660
C=CC(=C)CCC1(C)C(C)CC(O)C23C(=C[C@H](OC(=O)CC)CC12)[C@@H](OC(C)=O)O[C@H]3OC(C)=O (stereo partly specified)	500
C=CC(=C)CCC1(C)C(C)CC(O)C23C(=C[C@H](OC(=O)/C(C)=C\C)CC12)[C@@H](OC(C)=O)O[C@H]3OC(C)=O (stereo partly specified)	700
C=CC(=C)CCC1(C)C(C)CC(=O)C23C(=C[C@H](OC(=O)/C(C)=C\C)CC12)[C@@H](OC(C)=O)O[C@H]3OC(C)=O (stereo partly specified)	2000

Query (compound): C=CC(=C)CCC1(C)C(C)CC(=O)C23C(=C[C@H](OC(=O)CC)CC12)[C@@H](OC(C)=O)O[C@H]3OC(C)=O (stereo partly specified) ; field requested: TGI 700

Which value of TGI has been reported for C=CC(=C)CCC1(C)C(C)CC(=O)C23C(=C[C@H](OC(=O)C(C)C)CC12)[C@@H](OC(C)=O)O[C@H]3OC(C)=O (stereo partly specified) in the records? 2300

// lookup TGI for C=CC(=C)CCC1(C)C(C)CC(O)C23C(=C[C@H](OC(=O)CC(C)C)CC12)[C@@H](OC(C)=O)O[C@H]3OC(C)=O (stereo partly specified) 360

State the recorded TGI for this entry: C=CC(=C)CCC1(C)C(C)CC(=O)C23C(=C[C@H](OC(=O)CCC)CC12)[C@@H](OC(C)=O)O[C@H]3OC(C)=O (stereo partly specified) 600

What value of measured TGI is listed for C=CC(=C)CCC1(C)C(C)CC(=O)C23C(=C[C@H](OC(=O)CC(C)C)CC12)[C@@H](OC(C)=O)O[C@H]3OC(C)=O (stereo partly specified) ? 660

I would be grateful if you could share the reported TGI for CCC1=C[C@@H]2CN(C1)Cc1c([nH]c3ccccc13)[C@@](C(=O)OC)(c1cc3c(cc1OC)N(C)[C@H]1[C@@](O)(C(=O)OC)[C@H](OC(C)=O)[C@]4(CC)C=CCN5CC[C@]31[C@@H]54)C2 [VINORELBINE] . 80

Can you share its TGI? I mean this compound: C=CC(=C)CCC1(C)C(C)CC(O)C23C(=C[C@H](OC(=O)[C@@H](C)CC)CC12)[C@@H](OC(C)=O)O[C@H]3OC(C)=O (stereo partly specified) 1100

----------
Entries annotated with measured TGI
assay: Antiproliferative activity against human SJCRH30 cells assessed as growth inhibition after 48 hrs by sulforhodamine B assay; type: functional

compound	TGI
C=CC(=C)CCC1(C)C(C)CC(=O)C23C(=C[C@H](OC(=O)[C@@H](C)CC)CC12)[C@@H](OC(C)=O)O[C@H]3OC(C)=O (some centres undefined)	730 nM
C=CC(=C)CCC1(C)C(C)CC(=O)C23C(=C[C@H](OC(=O)/C(C)=C\C)CC12)[C@@H](OC(C)=O)O[C@H]3OC(C)=O (some centres undefined)	1900 nM
CCC1=C[C@@H]2CN(C1)Cc1c([nH]c3ccccc13)[C@@](C(=O)OC)(c1cc3c(cc1OC)N(C)[C@H]1[C@@](O)(C(=O)OC)[C@H](OC(C)=O)[C@]4(CC)C=CCN5CC[C@]31[C@@H]54)C2 [VINORELBINE]	6 nM

Please look up its TGI: C=CC(=C)CCC1(C)C(C)CC(=O)C23C(=C[C@H](OC(=O)CC(C)C)CC12)[C@@H](OC(C)=O)O[C@H]3OC(C)=O (some centres undefined) 670 nM

----------
experiment: Antiproliferative activity against human SJCRH30 cells assessed as growth inhibition after 48 hrs by sulforhodamine B assay; type: functional
recorded_metric: TGI (nM)
Numbers only; they are read as nM.

compound	assay_result
C=CC(=C)CCC1(C)C(C)CC(O)C23C(=C[C@H](OC(=O)[C@@H](C)CC)CC12)[C@@H](OC(C)=O)O[C@H]3OC(C)=O (some centres not stated)	800
C=CC(=C)CCC1(C)C(C)CC(=O)C23C(=C[C@H](OC(=O)CC)CC12)[C@@H](OC(C)=O)O[C@H]3OC(C)=O (some centres not stated)	520
C=CC(=C)CCC1(C)C(C)CC(O)C23C(=C[C@H](OC(=O)CC)CC12)[C@@H](OC(C)=O)O[C@H]3OC(C)=O (some centres not stated)	360
C=CC(=C)CCC1(C)C(C)CC(=O)C23C(=C[C@H](OC(=O)CCC)CC12)[C@@H](OC(C)=O)O[C@H]3OC(C)=O (some centres not stated)	500
C=CC(=C)CCC1(C)C(C)CC(O)C23C(=C[C@H](OC(=O)/C(C)=C\C)CC12)[C@@H](OC(C)=O)O[C@H]3OC(C)=O (some centres not stated)	440

Returns the measured TGI for the input compound. Input: C=CC(=C)CCC1(C)C(C)CC(=O)C23C(=C[C@H](OC(=O)C(C)C)CC12)[C@@H](OC(C)=O)O[C@H]3OC(C)=O (some centres not stated) 2300

Entry under review: C=CC(=C)CCC1(C)C(C)CC(O)C23C(=C[C@H](OC(=O)CC(C)C)CC12)[C@@H](OC(C)=O)O[C@H]3OC(C)=O (some centres not stated) . Reported TGI? 340
